Target: CDK2-Cyclin A (Homo sapiens)
Assay: Z′-LYTE screening assay (Thermo Fisher)
Format: biochemical
Parameters: purchased Thermo Fisher Scientific
Conditions: single point at 1 μM; read-out: CDK2 % Inh.
compounds and their reported inhibition at 1 µM
MEASURE: inhibition at 1 µM (%)

1. CC(C)N1CCN(c2ccc(Nc3ncc4ccn(C5CCCC5)c4n3)cc2)CC1
84
2. CN1C2CC1CN(c1ccc(Nc3ncc4ccn(CC5CCOCC5)c4n3)cc1)C2
29
3. Cc1cc(=O)n(C2CCCC2)c2nc(Nc3ccc(N4CC5CC(C4)N5C)cc3)ncc12
38
4. Cc1cc(=O)n(C(C)C)c2nc(Nc3ccc(N4CC5CC(C4)N5C)cc3)ncc12
17
5. CC(C)N1CCN(c2ccc(Nc3ncc4c(n3)N(C3CCCC3)C(=O)C4)cc2)CC1
32
6. CN1C2CC1CN(c1ccc(Nc3ncc4cc(C#N)c(=O)n(C5CCCC5)c4n3)cc1)C2
94
7. Cc1cc(=O)n(C2CCCC2)c2nc(Nc3ccc(N4CCN(C)CC4)cc3)ncc12
57

----------
Catalogue of AMPKA pIC50 readings, one per entry.
Target: AMPKA α1β2γ1 (Homo sapiens)
Construct: purchased MRC PPU
Sequence (Q13131 11-559 limits assumed): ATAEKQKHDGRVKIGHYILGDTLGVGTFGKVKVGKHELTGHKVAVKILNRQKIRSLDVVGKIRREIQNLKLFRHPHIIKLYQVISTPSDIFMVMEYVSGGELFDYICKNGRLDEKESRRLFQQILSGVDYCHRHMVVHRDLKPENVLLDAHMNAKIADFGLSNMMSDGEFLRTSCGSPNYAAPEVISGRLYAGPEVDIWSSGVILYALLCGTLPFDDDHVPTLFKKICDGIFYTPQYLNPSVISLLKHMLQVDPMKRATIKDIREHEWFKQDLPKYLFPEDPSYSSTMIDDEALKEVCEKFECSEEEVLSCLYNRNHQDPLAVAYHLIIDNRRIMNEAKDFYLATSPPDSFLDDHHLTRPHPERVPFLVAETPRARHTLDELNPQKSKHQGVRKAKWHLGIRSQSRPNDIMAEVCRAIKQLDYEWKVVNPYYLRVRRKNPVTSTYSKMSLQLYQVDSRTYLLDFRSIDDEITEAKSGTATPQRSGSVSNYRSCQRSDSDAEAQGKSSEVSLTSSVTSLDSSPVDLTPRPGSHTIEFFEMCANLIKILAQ
Sequence (O43741 whole entry partner): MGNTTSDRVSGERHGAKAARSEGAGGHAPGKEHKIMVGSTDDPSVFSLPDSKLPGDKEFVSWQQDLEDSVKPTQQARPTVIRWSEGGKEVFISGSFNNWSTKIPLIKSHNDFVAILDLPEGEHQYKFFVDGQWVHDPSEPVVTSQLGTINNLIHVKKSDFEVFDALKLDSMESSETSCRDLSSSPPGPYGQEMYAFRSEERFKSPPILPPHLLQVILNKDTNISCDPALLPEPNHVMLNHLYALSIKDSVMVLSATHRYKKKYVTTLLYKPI
Sequence (P54619 whole entry partner): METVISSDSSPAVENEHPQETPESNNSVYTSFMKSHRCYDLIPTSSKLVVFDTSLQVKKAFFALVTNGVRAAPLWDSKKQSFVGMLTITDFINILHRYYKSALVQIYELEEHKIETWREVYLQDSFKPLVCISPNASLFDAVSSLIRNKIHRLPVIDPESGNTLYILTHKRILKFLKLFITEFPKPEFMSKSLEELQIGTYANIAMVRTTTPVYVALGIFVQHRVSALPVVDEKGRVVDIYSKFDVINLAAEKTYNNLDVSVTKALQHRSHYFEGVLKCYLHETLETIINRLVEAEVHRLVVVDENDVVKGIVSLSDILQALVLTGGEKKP
Assay: ADP-Glo biochemical assay AMPKA
Settings: ADP-Glo assay
MEASURE: AMPKA pIC50

1. CN1CCN(c2cccc(Nc3ncc4cc(C#N)c(=O)n(C5CCCC5)c4n3)c2)CC1
5.2
2. CC(C)N1CCN(c2ccc(Nc3ncc4c(n3)N(C3CCCC3)C(=O)C4)cc2)CC1
6.0
3. CN1C2CC1CN(c1ccc(Nc3ncc4ccn(CC5CCOCC5)c4n3)cc1)C2
5.1
4. CC(C)N1CCN(c2ccc(Nc3ncc4ccn(C5CCCC5)c4n3)cc2)CC1
5.5

----------
Target: NUAK1 (Homo sapiens, UniProt O60285)
Sequence (O60285 1-661): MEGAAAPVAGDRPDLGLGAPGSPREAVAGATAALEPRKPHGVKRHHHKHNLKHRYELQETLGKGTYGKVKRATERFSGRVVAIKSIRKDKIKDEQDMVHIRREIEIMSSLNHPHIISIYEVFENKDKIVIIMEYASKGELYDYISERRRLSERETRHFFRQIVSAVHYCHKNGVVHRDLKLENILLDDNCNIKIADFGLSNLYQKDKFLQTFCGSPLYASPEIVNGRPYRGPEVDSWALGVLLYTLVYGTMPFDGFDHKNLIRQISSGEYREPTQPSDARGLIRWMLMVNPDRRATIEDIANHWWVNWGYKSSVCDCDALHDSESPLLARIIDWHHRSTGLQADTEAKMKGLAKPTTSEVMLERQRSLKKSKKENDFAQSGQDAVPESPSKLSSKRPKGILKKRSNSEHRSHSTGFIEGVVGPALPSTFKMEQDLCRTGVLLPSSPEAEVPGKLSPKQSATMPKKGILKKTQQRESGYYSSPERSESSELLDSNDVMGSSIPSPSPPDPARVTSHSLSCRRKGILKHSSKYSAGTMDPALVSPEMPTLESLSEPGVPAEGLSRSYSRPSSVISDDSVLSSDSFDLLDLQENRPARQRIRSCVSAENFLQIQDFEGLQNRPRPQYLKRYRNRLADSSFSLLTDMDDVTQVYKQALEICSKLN
Assay: ADP-Glo biochemical assay NUAK1
Design: purchased MRC PPU
Settings: ADP-Glo assay
The label depends only on NUAK1 pIC50: true if it is at least 8, false if it is smaller.

1) Cc1cc(=O)n(CC(O)CO)c2nc(Nc3ccc(N4CC5CC(C4)N5C)cc3)ncc12 (centres unmarked)
false
2) Cc1cc(=O)n(C2CCCC2)c2nc(Nc3ccc(N4CC5CC(C4)N5C)cc3)ncc12
true
3) CN1C2CC1CN(c1ccc(Nc3ncc4ccn(CC5CCOCC5)c4n3)cc1)C2
true
4) CC(C)N1CCN(c2ccc(Nc3ncc4ccn(CC5CCCO5)c4n3)cc2)CC1 (centres unmarked)
true
5) CN1CCN(c2ccc(Nc3ncc4cc(C#N)c(=O)n(C5CCCC5)c4n3)cc2)CC1 [Compound 3, Narazaciclib, reference compound]
false
6) COc1cc(Nc2ncc3cc(C#N)c(=O)n(C4CCCC4)c3n2)cc(OC)c1OC [Compound 16, ON123790, reference compound]
false
7) CN1CCN(c2ccc(Nc3ncc4c(n3)N(C3CCCC3)C(=O)C(C)(C)O4)cc2)CC1
false
8) Cc1cc(=O)n(C2CCCC2)c2nc(Nc3ccc(N4CCN(C(C)C)CC4)cc3)ncc12
true

----------
Molecular target: MARK3 (Homo sapiens)
Construct: purchased MRC PPU
Sequence (P27448 whole entry): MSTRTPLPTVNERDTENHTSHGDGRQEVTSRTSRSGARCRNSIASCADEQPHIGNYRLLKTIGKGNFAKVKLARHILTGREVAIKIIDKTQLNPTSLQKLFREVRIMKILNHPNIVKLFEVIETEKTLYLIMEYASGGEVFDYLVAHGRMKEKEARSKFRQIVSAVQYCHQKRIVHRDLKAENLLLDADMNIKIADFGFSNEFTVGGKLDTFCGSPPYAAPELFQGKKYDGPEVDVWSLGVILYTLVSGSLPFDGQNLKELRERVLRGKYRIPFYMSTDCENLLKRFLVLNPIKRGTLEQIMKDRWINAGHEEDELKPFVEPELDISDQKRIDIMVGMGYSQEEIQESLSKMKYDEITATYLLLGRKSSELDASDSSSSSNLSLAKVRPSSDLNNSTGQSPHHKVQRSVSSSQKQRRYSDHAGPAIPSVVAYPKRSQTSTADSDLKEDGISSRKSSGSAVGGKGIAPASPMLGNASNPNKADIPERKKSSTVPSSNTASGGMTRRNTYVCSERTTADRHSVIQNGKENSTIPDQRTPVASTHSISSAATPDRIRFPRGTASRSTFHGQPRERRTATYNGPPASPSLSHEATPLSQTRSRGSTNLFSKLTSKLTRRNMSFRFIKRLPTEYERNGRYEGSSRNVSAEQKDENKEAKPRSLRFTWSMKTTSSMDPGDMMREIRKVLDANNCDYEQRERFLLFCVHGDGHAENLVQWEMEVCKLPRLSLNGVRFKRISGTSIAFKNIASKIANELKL
Test: ADP-Glo biochemical assay MARK3
Conditions: MARK3 IC50/NUAK1 IC50
Rule: 1 (yes) for MARK3 Fold selectivity IC50/NUAK1 IC50 not less than 100 fold, 0 (no) for anything less.

1. Cc1cc(=O)n(CC(O)CO)c2nc(Nc3ccc(N4CC5CC(C4)N5C)cc3)ncc12 (centres unmarked) [Compound 22]
0 (no)
2. CC(C)N1CCN(c2ccc(Nc3ncc4c(n3)N(C3CCCC3)C(=O)C4)cc2)CC1 [Compound 7]
1 (yes)
3. CC(C)N1CCN(c2ccc(Nc3ncc4ccn(C5CCCC5)c4n3)cc2)CC1 [Compound 8]
1 (yes)
4. CN1C2CC1CN(c1ccc(Nc3ncc4ccn(CC5CCOC5)c4n3)cc1)C2 (centres unmarked) [Compound 29]
1 (yes)
5. CN1C2CC1CN(c1ccc(Nc3ncc4cc(C#N)c(=O)n(C5CCCC5)c4n3)cc1)C2 [Compound 10]
0 (no)
6. COc1cc(Nc2ncc3cc(C#N)c(=O)n(C4CCCC4)c3n2)cc(OC)c1OC [Compound 16, ON123790, reference compound]
1 (yes)
7. CN1CCN(c2ccc(Nc3ncc4ccn(C)c4n3)cc2)CC1 [Compound 23]
0 (no)
8. COCCn1c(=O)cc(C)c2cnc(Nc3ccc(N4CC5CC(C4)N5C)cc3)nc21 [Compound 21]
0 (no)
9. Cc1cc(=O)n(C2CCCC2)c2nc(Nc3ccc(N4CCN(C(C)C)CC4)cc3)ncc12 [Compound 5]
0 (no)
10. CN1CCN(c2cccc(Nc3ncc4cc(C#N)c(=O)n(C5CCCC5)c4n3)c2)CC1 [Compound 11]
0 (no)
11. CN1CCN(c2ccc(Nc3ncc4cc(C#N)c(=O)n(C5CCCC5)c4n3)cc2)CC1 [Compound 3, Narazaciclib, reference compound]
0 (no)
12. CN1C2CC1CN(c1ccc(Nc3ncc4ccn(C5CCOC5)c4n3)cc1)C2 (centres unmarked) [Compound 30]
1 (yes)
13. COc1cc(Nc2ncc3c(C)cc(=O)n(C4CCCC4)c3n2)cc(OC)c1OC [Compound 15]
1 (yes)
14. COc1nn(C)cc1Nc1ncc2c(C)cc(=O)n(C3CCCC3)c2n1 [Compound 18]
0 (no)
15. CN1C2CC1CN(c1ccc(Nc3ncc4ccn(C5COC5)c4n3)cc1)C2 [Compound 31]
1 (yes)
16. COc1cc(Nc2ncc3c(n2)N(C2CCCC2)C(=O)C(C)(C)O3)cc(OC)c1OC [Compound 19]
0 (no)

----------
Assay: Plasma protein binding
Type: in vitro ADME
Conditions: mouse plasma, read-out: PPB Fu
MEASURE: fraction unbound at 5 h, 1 µM

1. Cc1cc(=O)n(C2CCCC2)c2nc(Nc3ccc(N4CC5CC(C4)N5C)cc3)ncc12 [Compound 9]
0.011
2. CN1C2CC1CN(c1ccc(Nc3ncc4ccn(CC5CCOCC5)c4n3)cc1)C2 [Compound 24]
0.152
3. CN1C2CC1CN(c1ccc(Nc3ncc4cc(C#N)c(=O)n(C5CCCC5)c4n3)cc1)C2 [Compound 10]
0.019

----------
Test: Brain protein binding
Type: in vitro ADME
Conditions: mouse brain tissue, read-out: BPB Fu
Each entry below carries its reported fraction unbound at 5 h, 1 µM.
MEASURE: fraction unbound at 5 h, 1 µM

1. CN1C2CC1CN(c1ccc(Nc3ncc4cc(C#N)c(=O)n(C5CCCC5)c4n3)cc1)C2 [Compound 10]
0.01
2. Cc1cc(=O)n(C2CCCC2)c2nc(Nc3ccc(N4CC5CC(C4)N5C)cc3)ncc12 [Compound 9]
0.006
3. CN1CCN(c2ccc(Nc3ncc4cc(C#N)c(=O)n(C5CCCC5)c4n3)cc2)CC1 [Compound 3, Narazaciclib, reference compound]
0.012
4. CC(C)N1CCN(c2ccc(Nc3ncc4ccn(CC5CCCO5)c4n3)cc2)CC1 (stereo not drawn) [Compound 27]
0.039
5. CN1C2CC1CN(c1ccc(Nc3ncc4ccn(CC5CCOCC5)c4n3)cc1)C2 [Compound 24]
0.09
6. CN1CCN(c2ccc(Nc3ncc4ccn(C)c4n3)cc2)CC1 [Compound 23]
0.066

----------
Target: CDK4/Cyclin D1 (Homo sapiens, UniProt P11802)
Construct: purchased Thermo Fisher Scientific
Sequence (P11802 whole entry): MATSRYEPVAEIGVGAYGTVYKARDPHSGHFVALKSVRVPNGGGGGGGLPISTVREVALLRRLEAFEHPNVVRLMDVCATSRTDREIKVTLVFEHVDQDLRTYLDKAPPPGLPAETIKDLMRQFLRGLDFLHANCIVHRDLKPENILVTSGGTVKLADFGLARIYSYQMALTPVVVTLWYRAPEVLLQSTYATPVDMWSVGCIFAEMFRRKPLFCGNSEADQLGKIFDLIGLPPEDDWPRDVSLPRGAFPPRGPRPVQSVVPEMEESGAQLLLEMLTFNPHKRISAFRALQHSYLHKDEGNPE
Sequence (P24385 whole entry partner): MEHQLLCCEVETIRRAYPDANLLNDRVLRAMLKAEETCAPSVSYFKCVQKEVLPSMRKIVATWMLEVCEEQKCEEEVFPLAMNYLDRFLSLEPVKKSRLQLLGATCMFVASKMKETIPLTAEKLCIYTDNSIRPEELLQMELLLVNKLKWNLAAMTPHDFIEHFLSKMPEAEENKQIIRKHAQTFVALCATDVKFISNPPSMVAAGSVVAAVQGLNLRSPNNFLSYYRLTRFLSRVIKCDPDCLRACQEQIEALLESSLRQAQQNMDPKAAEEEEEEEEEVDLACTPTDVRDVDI
Assay: Adapta screening assay (Thermo Fisher)
Format: biochemical
Conditions: single point at 1 μM; read-out: CDK4 % Inh.
inhibition at 1 µM reference
MEASURE: inhibition at 1 µM

1. CC(C)N1CCN(c2ccc(Nc3ncc4c(n3)N(C3CCCC3)C(=O)C4)cc2)CC1
75%
2. CC(C)N1CCN(c2ccc(Nc3ncc4ccn(C5CCCC5)c4n3)cc2)CC1
90%
3. Cc1cc(=O)n(C2CCCC2)c2nc(Nc3ccc(N4CCN(C)CC4)cc3)ncc12
98%
4. Cc1cc(=O)n(C(C)C)c2nc(Nc3ccc(N4CC5CC(C4)N5C)cc3)ncc12
46%
5. CN1C2CC1CN(c1ccc(Nc3ncc4cc(C#N)c(=O)n(C5CCCC5)c4n3)cc1)C2
98%
6. CN1C2CC1CN(c1ccc(Nc3ncc4ccn(CC5CCOCC5)c4n3)cc1)C2
29%
7. Cc1cc(=O)n(C2CCCC2)c2nc(Nc3ccc(N4CC5CC(C4)N5C)cc3)ncc12
91%
